Quick reference for IC50 among some molecules
measured.target: MT2 (Homo sapiens)
protocol.description: biochemical

{"columns": ["molecule", "measured.target", "IC50"],
 "data": [
  ["COc1ccc2c(=O)n(C)ccc2c1OCc1ccc(C)cc1 [15d]", "MT2 (Homo sapiens)", "9.55 µM"],
  ["COc1cc2ccn(C)c(=O)c2cc1OCc1ccc(C)cc1 [14d]", "MT2 (Homo sapiens)", "13.8 µM"],
  ["COc1cc(COc2c(OC)ccc3c(=O)n(C)ccc23)cc(OC)c1 [15c]", "MT2 (Homo sapiens)", "0.141 µM"],
  ["COc1cc2c(=O)n(C)ccc2cc1OCc1ccccc1 [7a]", "MT2 (Homo sapiens)", "2.82 µM"]
]}

----------
measured.target: MT1 (Homo sapiens, UniProt P48039)
Sequence (P48039 whole entry): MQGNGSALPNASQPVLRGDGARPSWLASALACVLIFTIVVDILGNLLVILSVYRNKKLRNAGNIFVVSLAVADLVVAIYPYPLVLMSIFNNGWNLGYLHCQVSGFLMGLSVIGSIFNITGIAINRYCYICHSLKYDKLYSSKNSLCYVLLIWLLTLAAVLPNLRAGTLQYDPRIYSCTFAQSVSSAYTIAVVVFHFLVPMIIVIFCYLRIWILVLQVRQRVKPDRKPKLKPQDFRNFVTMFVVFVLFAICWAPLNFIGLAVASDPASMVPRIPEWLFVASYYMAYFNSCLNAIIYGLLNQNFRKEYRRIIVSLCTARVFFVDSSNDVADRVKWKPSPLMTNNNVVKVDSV
protocol.description: biochemical
reported.property: Ki (nM)

{"columns": ["compound", "measured.target", "numeric.value"],
 "data": [
  ["COc1cc(COc2c(OC)ccc3c(=O)n(C)ccc23)cc(OC)c1 [15c]", "MT1 (Homo sapiens, UniProt P48039)", 2130],
  ["COc1ccc2c(=O)n(C)ccc2c1OCc1ccc(C)cc1 [15d]", "MT1 (Homo sapiens, UniProt P48039)", 770],
  ["COc1cc(COc2cc3ccn(C)c(=O)c3cc2OC)cc(OC)c1", "MT1 (Homo sapiens, UniProt P48039)", 13100],
  ["COc1cc2c(=O)n(C)ccc2cc1OCc1ccc(C)cc1", "MT1 (Homo sapiens, UniProt P48039)", 2040],
  ["COc1cccc(COc2cc3ccn(C)c(=O)c3cc2OC)c1", "MT1 (Homo sapiens, UniProt P48039)", 3700],
  ["COc1ccc2c(=O)n(C)ccc2c1OCc1ccccc1 [15a]", "MT1 (Homo sapiens, UniProt P48039)", 2070],
  ["CC(=O)NCCc1c(Cc2ccccc2)[nH]c2ccccc12 [luzindole, reference compound]", "MT1 (Homo sapiens, UniProt P48039)", 102]
]}

----------
measured.target: MT2 (Homo sapiens, UniProt P49286)
protocol.description: Inhibition of forskolin-stimulated cAMP accumulation in MT2-CHO cells
Assay type: cell-based
Design: expressed in transfected cells
run.parameters: MT2-CHO cells, 50 µM forskolin; calculated from mean pIC50; read-out: MT2 IC50, inhibition of cAMP production

{"columns": ["compound", "IC50 [nM]"],
 "data": [
  ["COc1cc(COc2cc3c(=O)n(C)ccc3cc2OC)cc(OC)c1 [14c]", 326],
  ["COc1cc(COc2cc3ccn(C)c(=O)c3cc2OC)cc(OC)c1 [7c]", 2460],
  ["COc1cccc(COc2cc3c(=O)n(C)ccc3cc2OC)c1 [14b]", 69.4],
  ["COc1ccccc1COc1cc2ccn(C)c(=O)c2cc1OC [7d]", 247],
  ["COc1cc(COc2c(OC)ccc3c(=O)n(C)ccc23)cc(OC)c1 [15c]", 40.6],
  ["COc1cccc(COc2c(OC)ccc3c(=O)n(C)ccc23)c1 [15b]", 0.81]
]}

----------
measured.target: MT2 (Homo sapiens, UniProt P49286)
protocol.description: Inhibition of forskolin-stimulated cAMP accumulation in MT2-CHO cells
Format: cell-based
Parameters: expressed in transfected cells
run.parameters: maximal percentage inhibition of the forskolin-elevated cAMP level, MT2-CHO
Quick reference for MT2 %Inhmax ±SEM among some molecules

{"columns": ["molecule", "measured.target", "MT2 %Inhmax ±SEM"],
 "data": [
  ["COc1cccc(COc2cc3ccn(C)c(=O)c3cc2OC)c1 [7b]", "MT2 (Homo sapiens, UniProt P49286)", "70±3%"],
  ["COc1cccc(COc2cc3c(=O)n(C)ccc3cc2OC)c1 [14b]", "MT2 (Homo sapiens, UniProt P49286)", "71±6%"],
  ["COc1ccccc1COc1cc2ccn(C)c(=O)c2cc1OC [7d]", "MT2 (Homo sapiens, UniProt P49286)", "59±5%"],
  ["COc1cc(COc2c(OC)ccc3c(=O)n(C)ccc23)cc(OC)c1 [15c]", "MT2 (Homo sapiens, UniProt P49286)", "64±3%"],
  ["COc1cccc(COc2c(OC)ccc3c(=O)n(C)ccc23)c1 [15b]", "MT2 (Homo sapiens, UniProt P49286)", "61±4%"],
  ["COc1cc(COc2cc3c(=O)n(C)ccc3cc2OC)cc(OC)c1 [14c]", "MT2 (Homo sapiens, UniProt P49286)", "58±3%"]
]}

----------
measured.target: MT2 (Homo sapiens, UniProt P49286)
protocol.description: Intracellular Ca2+ mobilization (FLIPR) in MT2-CHO cells co-expressing 16z25
Assay type: cell-based
Set-up: expressed in transfected cells
run.parameters: MT2; percentage of melatonin (MT)-mediated stimulation of Ca2+ signal; read-out: MT2 %Resp ±SEM, Ca2+ signal

{"columns": ["compound", "value.unit", "Emax"],
 "data": [
  ["COc1ccccc1COc1cc2ccn(C)c(=O)c2cc1OC [7d]", "%", 85],
  ["COc1cccc(COc2c(OC)ccc3c(=O)n(C)ccc23)c1 [15b]", "%", 89],
  ["COc1cccc(COc2cc3c(=O)n(C)ccc3cc2OC)c1 [14b]", "%", 96],
  ["COc1cc(COc2c(OC)ccc3c(=O)n(C)ccc23)cc(OC)c1 [15c]", "%", 85],
  ["COc1cc(COc2cc3c(=O)n(C)ccc3cc2OC)cc(OC)c1 [14c]", "%", 71],
  ["COc1ccc2c(=O)n(C)ccc2c1OCc1ccccc1 [15a]", "%", 70]
]}

----------
measured.target: MT1 (Homo sapiens, UniProt P48039)
protocol.description: biochemical
pIC50: −log10 of the molar value.
reported.property: pIC50

{"columns": ["molecule", "measured.target", "reported.property", "numeric.value"],
 "data": [
  ["COc1ccc2c(=O)n(C)ccc2c1OCc1ccc(C)cc1 [15d]", "MT1 (Homo sapiens, UniProt P48039)", "pIC50", 5.47],
  ["COc1cccc(COc2cc3ccn(C)c(=O)c3cc2OC)c1 [7b]", "MT1 (Homo sapiens, UniProt P48039)", "pIC50", 4.79],
  ["COc1cccc(COc2c(OC)ccc3c(=O)n(C)ccc23)c1 [15b]", "MT1 (Homo sapiens, UniProt P48039)", "pIC50", 4.88],
  ["COc1ccc2c(=O)n(C)ccc2c1OCc1ccccc1 [15a]", "MT1 (Homo sapiens, UniProt P48039)", "pIC50", 5.04],
  ["COc1cc(COc2c(OC)ccc3c(=O)n(C)ccc23)cc(OC)c1 [15c]", "MT1 (Homo sapiens, UniProt P48039)", "pIC50", 5.03],
  ["COc1cc2c(=O)n(C)ccc2cc1OCc1ccc(C)cc1 [7f]", "MT1 (Homo sapiens, UniProt P48039)", "pIC50", 5.05],
  ["COc1cc(COc2cc3ccn(C)c(=O)c3cc2OC)cc(OC)c1 [7c]", "MT1 (Homo sapiens, UniProt P48039)", "pIC50", 4.24]
]}

----------
measured.target: MT2 (Homo sapiens)
Sequence (P49286 1-362): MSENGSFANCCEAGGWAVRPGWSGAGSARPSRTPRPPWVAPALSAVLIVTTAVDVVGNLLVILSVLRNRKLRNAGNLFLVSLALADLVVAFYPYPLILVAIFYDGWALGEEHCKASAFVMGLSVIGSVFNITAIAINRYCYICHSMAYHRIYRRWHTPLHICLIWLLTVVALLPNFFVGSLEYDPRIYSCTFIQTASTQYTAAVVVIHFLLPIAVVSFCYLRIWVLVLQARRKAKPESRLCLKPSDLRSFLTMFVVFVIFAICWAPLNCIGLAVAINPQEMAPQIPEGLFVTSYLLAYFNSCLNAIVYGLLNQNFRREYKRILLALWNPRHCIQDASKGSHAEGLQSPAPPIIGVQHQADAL
protocol.description: biochemical
run.parameters: MT2 Ki, calculated from mean pIC50 (Cheng-Prusoff); 1 nM [3H]melatonin, intact CHO cells
Ki under 0.9 µM gets y, anything at or over 0.9 µM gets n.

{"columns": ["compound", "measured.target", "group"],
 "data": [
  ["COc1ccc2c(=O)n(C)ccc2c1OCc1ccc(C)cc1 [15d]", "MT2 (Homo sapiens)", "n"],
  ["COc1cccc(COc2cc3ccn(C)c(=O)c3cc2OC)c1", "MT2 (Homo sapiens)", "y"],
  ["COc1ccc2c(=O)n(C)ccc2c1OCc1ccccc1 [15a]", "MT2 (Homo sapiens)", "y"],
  ["COc1cc(COc2cc3c(=O)n(C)ccc3cc2OC)cc(OC)c1 [14c]", "MT2 (Homo sapiens)", "n"],
  ["COc1cc(COc2c(OC)ccc3c(=O)n(C)ccc23)cc(OC)c1 [15c]", "MT2 (Homo sapiens)", "y"],
  ["COc1cc(COc2cc3ccn(C)c(=O)c3cc2OC)cc(OC)c1", "MT2 (Homo sapiens)", "y"],
  ["COc1cc2ccn(C)c(=O)c2cc1OCc1ccccc1 [14a]", "MT2 (Homo sapiens)", "n"],
  ["COc1cc2c(=O)n(C)ccc2cc1OCc1ccc(C)cc1", "MT2 (Homo sapiens)", "y"],
  ["COc1cccc(COc2cc3c(=O)n(C)ccc3cc2OC)c1 [14b]", "MT2 (Homo sapiens)", "y"],
  ["COc1ccc(COc2cc3ccn(C)c(=O)c3cc2OC)cc1", "MT2 (Homo sapiens)", "y"],
  ["COc1cc2c(=O)n(C)ccc2cc1OCc1ccccc1", "MT2 (Homo sapiens)", "y"],
  ["CC(=O)NCCc1c(Cc2ccccc2)[nH]c2ccccc12 [luzindole, reference compound]", "MT2 (Homo sapiens)", "y"],
  ["COc1cc2c(=O)n(C)ccc2cc1OCc1cc(C)cc(C)c1", "MT2 (Homo sapiens)", "n"],
  ["COc1ccccc1COc1cc2ccn(C)c(=O)c2cc1OC", "MT2 (Homo sapiens)", "y"],
  ["COc1cc2ccn(C)c(=O)c2cc1OCc1ccc(C)cc1 [14d]", "MT2 (Homo sapiens)", "n"]
]}

From: paper PMC4257560
